Reference for the values: paper PMC6001238

tested on: L1210, CEM and HeLa cell lines; assay: Cytostatic activity, average or summary over L1210, CEM and HeLa; assay type: cell-based; settings: average of L1210, CEM and HeLa; read-out: Toxicity (IC50) Average
Value Kind: pIC50
Note on pIC50: it is the negative log10 of concentration, concentration in mol/L.

For CNC(CC(C)C)C(=O)NC1C(=O)NC(CC(N)=O)C(=O)NC2C(=O)NC3C(=O)NC(C(=O)NC(C(=O)NCC(=O)Nc4ccc(-c5cnnn5C5OC(COC(C)=O)C(OC(C)=O)C(OC(C)=O)C5OC(C)=O)cc4)c4cc(O)cc(O)c4-c4cc3ccc4O)C(O)c3ccc(c(Cl)c3)Oc3cc2cc(c3OC2OC(CO)C(O)C(O)C2OC2CC(C)(N)C(O)C(C)O2)Oc2ccc(cc2Cl)C1O (centres unmarked) [Vanc-78] the compound record lists pIC50 as 3.73

CCc1ccc(NC(=O)CNC(=O)[C@H]2NC(=O)[C@H]3NC(=O)[C@H](NC(=O)[C@@H]4NC(=O)[C@H](CC(N)=O)NC(=O)[C@H](NC(=O)[C@@H](CC(C)C)NC)[C@H](O)c5ccc(c(Cl)c5)Oc5cc4cc(c5O[C@@H]4O[C@H](CO)[C@@H](O)[C@H](O)[C@H]4O[C@H]4C[C@](C)(N)[C@H](O)[C@H](C)O4)Oc4ccc(cc4Cl)[C@H]3O)c3ccc(O)c(c3)-c3c(O)cc(O)cc32)cc1 [Vanc-13] yielded pIC50 of 3.67

Field pIC50 (entry CCCCCc1ccc(NC(=O)CNC(=O)[C@H]2NC(=O)[C@H]3NC(=O)[C@H](NC(=O)[C@@H]4NC(=O)[C@H](CC(N)=O)NC(=O)[C@H](NC(=O)[C@@H](CC(C)C)NC)[C@H](O)c5ccc(c(Cl)c5)Oc5cc4cc(c5O[C@@H]4O[C@H](CO)[C@@H](O)[C@H](O)[C@H]4O[C@H]4C[C@](C)(N)[C@H](O)[C@H](C)O4)Oc4ccc(cc4Cl)[C@H]3O)c3ccc(O)c(c3)-c3c(O)cc(O)cc32)cc1 [Vanc-74] ) reads 3.84

Reported pIC50 of CN[C@H](CC(C)C)C(=O)N[C@H]1C(=O)N[C@@H](CC(N)=O)C(=O)N[C@H]2C(=O)N[C@H]3C(=O)N[C@H](C(=O)N[C@H](C(=O)NCC(=O)Nc4cc(OC)cc(OC)c4)c4cc(O)cc(O)c4-c4cc3ccc4O)[C@H](O)c3ccc(c(Cl)c3)Oc3cc2cc(c3O[C@@H]2O[C@H](CO)[C@@H](O)[C@H](O)[C@H]2O[C@H]2C[C@](C)(N)[C@H](O)[C@H](C)O2)Oc2ccc(cc2Cl)[C@H]1O [Vanc-17] : 3.69

Record CN[C@H](CC(C)C)C(=O)N[C@H]1C(=O)N[C@@H](CC(N)=O)C(=O)N[C@H]2C(=O)N[C@H]3C(=O)N[C@H](C(=O)N[C@H](C(=O)NCCCNC(=O)c4ccc5ccccc5c4)c4cc(O)cc(O)c4-c4cc3ccc4O)[C@H](O)c3ccc(c(Cl)c3)Oc3cc2cc(c3O[C@@H]2O[C@H](CO)[C@@H](O)[C@H](O)[C@H]2O[C@H]2C[C@](C)(N)[C@H](O)[C@H](C)O2)Oc2ccc(cc2Cl)[C@H]1O [Vanc-28] , field pIC50: 3.74
